All values here come from patent US20240174634A1.

target: ALDH1A3 (Homo sapiens); test: Primary biochemical assay, NAD(P)H-Glo Detection System; set-up: His-tag; made in house; host or cells: E. coli Rosetta (DE3); conditions: 30 min pre-incubation, propionaldehyde and NAD at Km
Sequence (P47895 whole entry): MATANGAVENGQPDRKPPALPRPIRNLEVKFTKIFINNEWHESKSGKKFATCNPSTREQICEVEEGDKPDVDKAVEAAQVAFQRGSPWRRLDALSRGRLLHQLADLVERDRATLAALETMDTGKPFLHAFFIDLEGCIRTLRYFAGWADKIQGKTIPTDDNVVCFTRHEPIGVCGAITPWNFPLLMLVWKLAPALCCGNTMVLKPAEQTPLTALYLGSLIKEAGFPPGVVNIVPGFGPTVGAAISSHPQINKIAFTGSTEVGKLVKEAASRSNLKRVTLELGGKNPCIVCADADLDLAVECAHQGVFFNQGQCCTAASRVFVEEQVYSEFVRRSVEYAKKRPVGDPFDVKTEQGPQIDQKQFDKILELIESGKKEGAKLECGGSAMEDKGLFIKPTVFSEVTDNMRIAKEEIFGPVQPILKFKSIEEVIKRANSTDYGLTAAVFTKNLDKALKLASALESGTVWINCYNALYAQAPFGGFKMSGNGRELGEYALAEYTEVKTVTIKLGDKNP
Reported IC50 values for a set of compounds

Provide IC50, tested on ALDH1A3 (Homo sapiens), for O=C1CCc2cc(NC(=O)c3ncsc3-c3cccnc3)ccc2N1 . 1000 to 10000 nM

Provide IC50, tested on ALDH1A3 (Homo sapiens), for CN(CCOc1ccc2c(c1)CCC(=O)N2)Cc1cnn(C)c1 . 1000 to 10000 nM

Provide IC50, tested on ALDH1A3 (Homo sapiens), for CC(C)C1Oc2cc(OCCN3CCCC3c3cccc(F)c3)ccc2NC1=O (stereo not drawn) . 1000 to 10000 nM

Provide IC50, tested on ALDH1A3 (Homo sapiens), for CN(C)c1nc(-c2cccc(F)c2)c(C(=O)Nc2ccc3c(c2)CCC(=O)N3)s1 . < 100 nM

Provide IC50, tested on ALDH1A3 (Homo sapiens), for CC1Cc2cc(OCCN3CCCC3c3cccc(F)c3)ccc2NC1=O (stereo not drawn) . < 100 nM

---

As an illustration, consider measured IC50 for compounds on ALDH1A2 (Homo sapiens).

For orientation, consider the following solved cases.
| compound | result |
| --- | --- |
| O=C1CCc2cc(NC(=O)c3sc(N4CCNCC4)nc3-c3cccc(F)c3)ccc2N1 [ALDHI-1005] | 10 to 100 µM |
| CN(C)c1nc(-c2cccc(F)c2)c(C(=O)Nc2ccc3c(c2)CCC(=O)N3)s1 [ALDHI-1002] | 1 to 10 µM |

Provide IC50, tested on ALDH1A2 (Homo sapiens), for CC1CN(CCOc2ccc3c(c2)CCC(=O)N3)C(c2ccccc2)CO1 (mixture of isomers) [ALDHI-2042] . 0.1 to 1 µM

Provide IC50, tested on ALDH1A2 (Homo sapiens), for Cc1nc(C2CCCN2CCOc2ccc3c(c2)CCC(=O)N3)cs1 (stereo not drawn) [ALDHI-2033] . ≥ 100 µM

Provide IC50, tested on ALDH1A2 (Homo sapiens), for O=C1CCc2cc(OCCN3CCCC3c3cccs3)ccc2N1 (stereo not drawn) [ALDHI-2013] . 1 to 10 µM

Provide IC50, tested on ALDH1A2 (Homo sapiens), for Cc1noc(-c2ccccc2C(=O)Nc2ccc3c(c2)CCC(=O)N3)n1 [ALDHI-1008] . 1 to 10 µM

Provide IC50, tested on ALDH1A2 (Homo sapiens), for O=C1CCc2cc(NC(=O)c3ccccc3-c3cccc(F)c3)ccc2N1 [ALDHI-1007] . 1 to 10 µM

Provide IC50, tested on ALDH1A2 (Homo sapiens), for COc1cccc(C2CCCN2CCOc2ccc3c(c2)CCC(=O)N3)c1 (stereo not drawn) [ALDHI-2034] . 10 to 100 µM

Provide IC50, tested on ALDH1A2 (Homo sapiens), for CN(CCOc1ccc2c(c1)CCC(=O)N2)C(=O)c1cccnc1 [ALDHI-3013] . ≥ 100 µM

---

biological target: ALDH1A3 (Homo sapiens); test: Primary biochemical assay, NAD(P)H-Glo Detection System; design: His-tag; made in house; host or cells: E. coli Rosetta (DE3); details: 30 min pre-incubation, propionaldehyde and NAD at Km
pIC50: −log10 of the molar value.
measured_quantity: pIC50

| compound | pIC50 |
| --- | --- |
| O=C1CCc2cc(NC(=O)c3sc(N4CC(O)C4)nc3-c3cccc(F)c3)ccc2N1 | > 7.00 |

Provide pIC50, tested on ALDH1A3 (Homo sapiens), for Cn1cccc1C1CCCN1CCOc1ccc2c(c1)CCC(=O)N2 (stereo not drawn) . 5.00 to 6.00

Provide pIC50, tested on ALDH1A3 (Homo sapiens), for CN(CCOc1ccc2c(c1)CCC(=O)N2)Cc1cccc(F)c1 . 6.00 to 7.00

Provide pIC50, tested on ALDH1A3 (Homo sapiens), for O=C1COc2cc(OCCN3CCCC3c3ccccn3)ccc2N1 (stereo not drawn) . 5.00 to 6.00

Provide pIC50, tested on ALDH1A3 (Homo sapiens), for Cn1cc(C2CCCN2CCOc2ccc3c(c2)OCC(=O)N3)cn1 (stereo not drawn) . 5.00 to 6.00

Provide pIC50, tested on ALDH1A3 (Homo sapiens), for CCCC1Oc2cc(OCCN3CCCC3c3cccc(F)c3)ccc2NC1=O (stereo not drawn) . 5.00 to 6.00

Provide pIC50, tested on ALDH1A3 (Homo sapiens), for O=C1CCc2cc(OCCN3CCC3c3cccc(F)c3)ccc2N1 (stereo not drawn) . 6.00 to 7.00

Provide pIC50, tested on ALDH1A3 (Homo sapiens), for CCN(CC)CCN(CCOc1ccc2c(c1)CCC(=O)N2)Cc1ccccc1 . 6.00 to 7.00

Provide pIC50, tested on ALDH1A3 (Homo sapiens), for CC1(c2cccc(F)c2)CCCN1CCOc1ccc2c(c1)CCC(=O)N2 (stereo not drawn) . > 7.00

---

target: ALDH1A1 (Homo sapiens, UniProt P00352); construct: His-tag; made in house; host or cells: E. coli Rosetta (DE3); test: Selectivity biochemical assay, NAD(P)H-Glo Detection System
Sequence (P00352 whole entry): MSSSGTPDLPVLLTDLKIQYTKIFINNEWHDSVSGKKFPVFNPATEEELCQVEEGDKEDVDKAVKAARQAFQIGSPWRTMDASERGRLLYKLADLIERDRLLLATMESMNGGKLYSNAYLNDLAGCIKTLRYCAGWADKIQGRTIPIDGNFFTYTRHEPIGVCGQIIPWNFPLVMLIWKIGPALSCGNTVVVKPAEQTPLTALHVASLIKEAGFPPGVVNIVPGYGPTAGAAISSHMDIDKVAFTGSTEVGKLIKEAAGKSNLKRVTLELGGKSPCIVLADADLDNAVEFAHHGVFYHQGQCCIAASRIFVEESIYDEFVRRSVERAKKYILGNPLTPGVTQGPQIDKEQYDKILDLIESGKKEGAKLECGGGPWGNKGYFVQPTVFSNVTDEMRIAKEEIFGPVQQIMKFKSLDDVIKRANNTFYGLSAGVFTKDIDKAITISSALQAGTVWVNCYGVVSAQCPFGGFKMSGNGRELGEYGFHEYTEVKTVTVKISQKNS
pIC50: −log10 of the molar value.
Reported pIC50 values for a set of compounds

Provide pIC50, tested on ALDH1A1 (Homo sapiens, UniProt P00352), for O=C1CCc2cc(NC(=O)c3scnc3-c3ccccc3Cl)ccc2N1 . 4.00 to 5.00

Provide pIC50, tested on ALDH1A1 (Homo sapiens, UniProt P00352), for O=C1CCc2cc(OCCN3CCC3c3cccc(F)c3)ccc2N1 (centres unmarked) . ≤ 4.00

Provide pIC50, tested on ALDH1A1 (Homo sapiens, UniProt P00352), for CCCC1Oc2cc(OCCN3CCCC3c3cccc(F)c3)ccc2NC1=O (centres unmarked) . ≤ 4.00

Provide pIC50, tested on ALDH1A1 (Homo sapiens, UniProt P00352), for Cc1ccc(C2CCCN2CCOc2ccc3c(c2)CCC(=O)N3)cc1 (centres unmarked) . ≤ 4.00

Provide pIC50, tested on ALDH1A1 (Homo sapiens, UniProt P00352), for O=C1COc2cc(OCCN3CCCC3c3cccc(F)c3)ccc2N1 (centres unmarked) . ≤ 4.00

Provide pIC50, tested on ALDH1A1 (Homo sapiens, UniProt P00352), for O=C1CCc2cc(NC(=O)c3scnc3-c3cccc(C(F)(F)F)c3)ccc2N1 . ≤ 4.00

Provide pIC50, tested on ALDH1A1 (Homo sapiens, UniProt P00352), for CN(CCOc1ccc2c(c1)CCC(=O)N2)C(=O)c1cccc(F)c1 . ≤ 4.00

Provide pIC50, tested on ALDH1A1 (Homo sapiens, UniProt P00352), for CC1(c2ccccc2)COCCN1CCOc1ccc2c(c1)CCC(=O)N2 (centres unmarked) . ≤ 4.00

---

target: ALDH1A3 (Homo sapiens); assay: ALDH1A3 cellular assay (ALDEFLUOR) in WM266.4 melanoma cells; type: cell-based; details: WM266.4 cells; 60 min incubation; percentage of ALDH-positive cells
Reported IC50 values for a set of compounds

Output measured IC50 for this item: O=C1COc2cc(OCCN3CCCC3c3cccc(F)c3)ccc2N1 (stereo not shown) 100 to 1000 nM

Output measured IC50 for this item: O=C1CCc2cc(OCCN3CCCC3c3ccccc3)ccc2N1 (stereo not shown) 100 to 1000 nM

Output measured IC50 for this item: CN(C)c1nc(-c2cccc(F)c2)c(C(=O)Nc2ccc3c(c2)CCC(=O)N3)s1 < 100 nM

Output measured IC50 for this item: Cn1cc(C2CCCN2CCOc2ccc3c(c2)SCC(=O)N3)cn1 (stereo not shown) 1000 to 10000 nM

Output measured IC50 for this item: CC1Cc2cc(OCCN3CCCC3c3cccc(F)c3)ccc2NC1=O (stereo not shown) < 100 nM

Output measured IC50 for this item: O=C1CSc2cc(OCCN3CCCC3c3cccnc3)ccc2N1 (stereo not shown) 100 to 1000 nM

Output measured IC50 for this item: O=C1CCc2cc(OCCN3CC(F)CC3c3cccc(F)c3)ccc2N1 (stereo not shown) < 100 nM

Output measured IC50 for this item: O=C1CSc2cc(OCCN3CCCC3c3cccc(F)c3)ccc2N1 (stereo not shown) < 100 nM

Output measured IC50 for this item: CC1CN(CCOc2ccc3c(c2)CCC(=O)N3)C(c2ccccc2)CO1 (mixture of isomers) 100 to 1000 nM

---

Reported pIC50 values for a set of compounds
Target: UniProt:O94788
Sequence (O94788 1-518): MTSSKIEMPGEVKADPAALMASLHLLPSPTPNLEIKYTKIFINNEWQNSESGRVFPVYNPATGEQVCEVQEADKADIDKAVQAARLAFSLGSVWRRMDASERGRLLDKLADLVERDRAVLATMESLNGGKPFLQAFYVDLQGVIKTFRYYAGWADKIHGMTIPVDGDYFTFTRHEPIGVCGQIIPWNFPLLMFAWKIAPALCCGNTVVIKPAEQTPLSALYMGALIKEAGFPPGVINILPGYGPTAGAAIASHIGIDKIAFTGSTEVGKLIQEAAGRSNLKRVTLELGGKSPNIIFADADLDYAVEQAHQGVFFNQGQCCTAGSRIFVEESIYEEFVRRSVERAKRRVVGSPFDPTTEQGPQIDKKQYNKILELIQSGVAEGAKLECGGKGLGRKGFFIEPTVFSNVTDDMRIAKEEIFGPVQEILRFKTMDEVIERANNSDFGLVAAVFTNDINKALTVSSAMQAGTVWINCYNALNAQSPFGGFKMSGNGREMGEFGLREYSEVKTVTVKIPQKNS
pIC50: −log10 of the molar value.

| compound | result |
| --- | --- |
| O=C1CCc2cc(OCCN3CCCC3c3cccnc3)ccc2N1 (stereo not shown) | 4.00 to 5.00 |
| CCn1cc(C2CCCN2CCOc2ccc3c(c2)CCC(=O)N3)cn1 (stereo not shown) | ≤ 4.00 |

Provide pIC50, tested on UniProt:O94788, for Cn1cc(C2CCCN2CCOc2ccc3c(c2)SCC(=O)N3)cn1 (stereo not shown) . ≤ 4.00
